Reference source for all entries: patent US4008220A

As an illustration, consider measured MIC for molecules on Proteus mirabilis GN2425.
Report the figure along with its unit, number first.

Would you please look over these solved cases?
# input Requested read-out MIC, target or system Proteus mirabilis GN2425, entry CC1(C)S[C@@H]2[C@H](NC(=O)C(NC(=O)c3ccnnc3O)c3ccsc3)C(=O)N2[C@H]1C(=O)O (stereo partly shown)
# output 6.25 µg/mL

# input Requested read-out MIC, target or system Proteus mirabilis GN2425, entry CC1(C)S[C@@H]2[C@H](NC(=O)[C@H](NC(=O)c3cnc4c(c3O)CCC4)c3ccccc3)C(=O)N2[C@H]1C(=O)O
# output 12.5 µg/mL

# input Requested read-out MIC, target or system Proteus mirabilis GN2425, entry CC1(C)S[C@@H]2[C@H](NC(=O)[C@H](NC(=O)c3cnc4c(c3O)CCCC4)c3ccccc3)C(=O)N2[C@H]1C(=O)O
# output 6.25 µg/mL

More entries:
# input Requested read-out MIC, target or system Proteus mirabilis GN2425, entry CC1(C)S[C@@H]2[C@H](NC(=O)[C@H](NC(=O)c3cccnc3O)c3ccc(O)cc3)C(=O)N2[C@H]1C(=O)O
# output 12.5 µg/mL

# input Requested read-out MIC, target or system Proteus mirabilis GN2425, entry CC1(C)S[C@@H]2[C@H](NC(=O)C(NC(=O)c3cccnc3)c3ccccc3)C(=O)N2[C@H]1C(=O)O (stereo partly shown) [II, reference compound]
# output 100 µg/mL

====

system: Pseudomonas aeruginosa 104; assay: Minimal inhibitory concentration by agar dilution method; assay type: cell-based
PROPERTY_NAME: MIC (µg/mL)
Give just the numeric value; µg/mL need not be written.

Would you please look over these solved cases?
# input What does the record list as MIC for CC1(C)S[C@@H]2[C@H](NC(=O)C(NC(=O)c3cncnc3O)c3ccsc3)C(=O)N2[C@H]1C(=O)O (stereo partly drawn) [Example 17] ?
# output 3.13

# input What does the record list as MIC for CCOC(=O)Oc1c(C(=O)N[C@@H](C(=O)N[C@@H]2C(=O)N3[C@@H]2SC(C)(C)[C@@H]3C(=O)O)c2ccccc2)cnc2c1CCCC2 [Example 6] ?
# output 12.5

# input What does the record list as MIC for CC1(C)S[C@@H]2[C@H](NC(=O)[C@H](NC(=O)c3cnccc3O)C3=CCC=CC3)C(=O)N2[C@H]1C(=O)O [Example 11] ?
# output 6.25

More entries:
# input What does the record list as MIC for Cc1ncc(C(=O)NC(C(=O)N[C@@H]2C(=O)N3[C@@H]2SC(C)(C)[C@@H]3C(=O)O)c2ccccc2)c(O)c1C(C)O (stereo partly drawn) [Example 22] ?
# output 6.25

# input What does the record list as MIC for CSc1ncc(C(=O)NC(C(=O)N[C@@H]2C(=O)N3[C@@H]2SC(C)(C)[C@@H]3C(=O)O)c2ccccc2)c(O)n1 (stereo partly drawn) [Example 27] ?
# output 6.25

# input What does the record list as MIC for CC1(C)S[C@@H]2[C@H](NC(=O)[C@H](NC(=O)c3cnc4c(c3O)CCCC4)c3ccccc3)C(=O)N2[C@H]1C(=O)O [Example 3] ?
# output 12.5

====

Recorded MIC, one value per entry.
test system: Pseudomonas aeruginosa 104; assay: Minimal inhibitory concentration by agar dilution method; assay type: cell-based
Give just the numeric value; µg/mL need not be written.

Would you please look over these solved cases?
# input What does the record list as MIC for CC1(C)S[C@@H]2[C@H](NC(=O)C(NC(=O)c3cnc4c(c3O)CCCCC4)c3ccccc3)C(=O)N2[C@H]1C(=O)O (stereo partly drawn) ?
# output 12.5

# input What does the record list as MIC for Cc1cc(C(=O)NC(C(=O)N[C@@H]2C(=O)N3[C@@H]2SC(C)(C)[C@@H]3C(=O)O)c2ccccc2)c(O)nn1 (stereo partly drawn) ?
# output 3.13

# input What does the record list as MIC for CC1(C)S[C@@H]2[C@H](NC(=O)C(NC(=O)c3cccnc3)c3ccccc3)C(=O)N2[C@H]1C(=O)O (stereo partly drawn) [II, reference compound] ?
# output 50

# input What does the record list as MIC for CC(=O)c1c(C)ncc(C(=O)N[C@@H](C(=O)N[C@@H]2C(=O)N3[C@@H]2SC(C)(C)[C@@H]3C(=O)O)c2ccccc2)c1O ?
# output 12.5

# input What does the record list as MIC for CCOC(=O)Oc1c(C(=O)NC(C(=O)N[C@@H]2C(=O)N3[C@@H]2SC(C)(C)[C@@H]3C(=O)O)c2ccccc2)cnc2c1CCCCC2 (stereo partly drawn) ?
# output 25

Attention now turns to another entry.
# input What does the record list as MIC for CC1(C)S[C@@H]2[C@H](NC(=O)C(NC(=O)c3ccnnc3O)c3cccs3)C(=O)N2[C@H]1C(=O)O (stereo partly drawn) ?
# output 3.13

====

As an illustration, consider measured MIC for compounds on Proteus mirabilis GN2425.
Give just the numeric value; µg/mL need not be written.

# input Requested read-out MIC, target or system Proteus mirabilis GN2425, entry CC1(C)S[C@@H]2[C@H](NC(=O)C(NC(=O)c3cnccc3O)c3cnsc3)C(=O)N2[C@H]1C(=O)O (some centres unmarked)
# output 12.5

# input Requested read-out MIC, target or system Proteus mirabilis GN2425, entry CC1(C)S[C@@H]2[C@H](NC(=O)C(NC(=O)c3cncnc3O)c3ccsc3)C(=O)N2[C@H]1C(=O)O (some centres unmarked)
# output 6.25

# input Requested read-out MIC, target or system Proteus mirabilis GN2425, entry CC1(C)S[C@@H]2[C@H](NC(=O)[C@H](NC(=O)c3cnccc3O)C3=CCC=CC3)C(=O)N2[C@H]1C(=O)O
# output 12.5

# input Requested read-out MIC, target or system Proteus mirabilis GN2425, entry CC1(C)S[C@@H]2[C@H](NC(=O)C(NC(=O)c3cnccc3O)c3ccccc3)C(=O)N2[C@H]1C(=O)O (some centres unmarked)
# output 12.5

# input Requested read-out MIC, target or system Proteus mirabilis GN2425, entry CCOC(=O)Oc1c(C(=O)N[C@@H](C(=O)N[C@@H]2C(=O)N3[C@@H]2SC(C)(C)[C@@H]3C(=O)O)c2ccccc2)cnc2c1CCCC2
# output 6.25

# input Requested read-out MIC, target or system Proteus mirabilis GN2425, entry CC(C)CC(NC(=O)c1ccnnc1O)C(=O)N[C@@H]1C(=O)N2[C@@H]1SC(C)(C)[C@@H]2C(=O)O (some centres unmarked)
# output 25

# input Requested read-out MIC, target or system Proteus mirabilis GN2425, entry CC1(C)S[C@@H]2[C@H](NC(=O)C(NC(=O)c3cnc4c(c3O)CCCCC4)c3ccccc3)C(=O)N2[C@H]1C(=O)O (some centres unmarked)
# output 6.25

Attention now turns to another entry.
# input Requested read-out MIC, target or system Proteus mirabilis GN2425, entry CC(=O)c1c(C)ncc(C(=O)N[C@@H](C(=O)N[C@@H]2C(=O)N3[C@@H]2SC(C)(C)[C@@H]3C(=O)O)c2ccccc2)c1O
# output 6.25
